Source of measurements: patent US20090221559A1

Here, each record is paired with measured pIC50 data.
- tgt: HCV NS5B polymerase (His-tagged, C-terminal 21 amino acid deleted NS5B, HC-J4) (Hepatitis C virus genotype 1b, UniProt O92972)
- Construct: The cDNA encoding NS5B amino acid 1-570 (HC-J4, genotype 1b); His tag (His6, from pET-21b) (C); made in house; host or cells: E. coli BL21 (DE3)
- Sequence (O92972 2417-3000, looked up, stated change not applied): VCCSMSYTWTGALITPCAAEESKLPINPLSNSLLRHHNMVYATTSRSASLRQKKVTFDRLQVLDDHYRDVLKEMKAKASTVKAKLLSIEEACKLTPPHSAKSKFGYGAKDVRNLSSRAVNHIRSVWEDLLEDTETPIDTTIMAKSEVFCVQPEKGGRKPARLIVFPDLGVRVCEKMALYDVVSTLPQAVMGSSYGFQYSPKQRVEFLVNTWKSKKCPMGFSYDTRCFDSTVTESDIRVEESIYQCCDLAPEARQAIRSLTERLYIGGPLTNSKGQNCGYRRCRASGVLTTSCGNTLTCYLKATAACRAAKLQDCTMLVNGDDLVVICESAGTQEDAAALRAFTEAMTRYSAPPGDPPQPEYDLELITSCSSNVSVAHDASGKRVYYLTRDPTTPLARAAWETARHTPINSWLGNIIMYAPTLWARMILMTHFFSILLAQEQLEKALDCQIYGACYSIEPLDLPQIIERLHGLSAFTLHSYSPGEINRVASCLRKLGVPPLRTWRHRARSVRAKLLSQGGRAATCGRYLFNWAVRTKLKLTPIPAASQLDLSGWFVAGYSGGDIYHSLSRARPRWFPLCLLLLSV
- experiment: NS5b polymerase assay (biochemical RdRp assay, 3H-GTP incorporation, SPA beads)
- Design: species or system HCV genotype 1b
- condition: NS5B Polymerase Assay IC50, 200 nM enzyme, 3H-GTP incorporation, 2 h at 25° C.
- Protocol: The compounds of formula (I) were tested for anti-HCV activity in an assay determining their activity against NS5b polymerase and in an HCV replicon assay The cDNA encoding NS5B amino acid 1-570 (HC-J4, genotype 1b, pCV-J4L6S, genebank accession number AF054247) was subcloned into the Nhe I and Xho I restriction sites of pET-21b. Expression of the subsequent His-tagged C-terminal 21 amino acid deleted NS5B was performed as follows: […]
pIC50: −log10 of the molar value.
metric.name: pIC50

{"molecule": "CCCCCC(=O)N1c2ccccc2NC2=C(C(=O)CC(c3ccco3)C2)C1c1cccc([N+](=O)[O-])c1 (stereo not shown)", "metric.name": "pIC50", "result": "< 4.37"}
{"molecule": "CC1(C)CC(=O)C2=C(C1)Nc1ccccc1N(C(=O)c1ccccc1)C2c1c(F)cccc1Cl (stereo not shown)", "metric.name": "pIC50", "result": "< 4.37"}
{"molecule": "CC(=O)N1c2ccccc2NC2=C(C(=O)CC(C)(C)C2)[C@H]1c1ccc(OCc2ccccc2)cc1 (single isomer, unassigned)", "metric.name": "pIC50", "result": 5.82}
{"molecule": "COc1ccc(C2C3=C(CC(C)(C)CC3=O)Nc3ccccc3N2C(=O)c2ccc(F)cc2)cc1 (stereo not shown)", "metric.name": "pIC50", "result": "< 4.37"}
